Test system: Immunoglobulin E (IgE), human myeloma (human)
Experiment: DNA microarray fluorescence
Settings: Blocking buffer: 10 mg/mL casein, 0.1% Tween-20, 8.1 mM Na2HPO4 (printed N2HPO4), 1.1 mM KH2PO4, 2.7 mM KCl, 137 mM NaCl (138 mM also listed), 1 mM MgCl2, pH 7.
measure.name: Kd

Q. May I ask what Kd has been recorded for CTACCTACGATCTGACTAGCCAATGAGTGTACCACGTTTATCCGTCCCTCCTAGTGGCGTGCTTACTCTCATGTAGTTCC [D 17.0] ?
A. > 100 nM
